Numbers sourced from paper PMC7433713.

- assay_info: Tacrolimus pharmacokinetics stratified by CYP3A5 metabolic composite and ABCB1 3435 genotype
- Type: in vivo, human
- cond: human, whole blood, oral, 2.35 mg; ABCB1 3534 CT and TT, CYP3A5 Poor (N 20); read-out: C12hr
assay_endpoint: concentration at 12 h
Lab note: write values as number then unit, every time.

Qu. Given "C=CC[C@@H]1/C=C(\C)C[C@H](C)C[C@H](OC)[C@H]2O[C@@](O)(C(=O)C(=O)N3CCCC[C@H]3C(=O)O[C@H](/C(C)=C/[C@@H]3CC[C@@H](O)[C@H](OC)C3)[C@H](C)[C@@H](O)CC1=O)[C@H](C)C[C@@H]2OC" , respond with its concentration at 12 h.
Ans. 6.81 ng/mL

###

- assay_info: Tacrolimus pharmacokinetics stratified by CYP3A5 metabolic composite and ABCB1 3435 genotype
- Assay type: in vivo, human
- cond: human, whole blood, oral, 5.67 mg; ABCB1 3534 CC, CYP3A5 Extensive (N 6)
assay_endpoint: Cmax (ng/mL)
Could you give me the number in ng/mL? Just the number is fine.

Qu. Report Cmax for C=CC[C@@H]1/C=C(\C)C[C@H](C)C[C@H](OC)[C@H]2O[C@@](O)(C(=O)C(=O)N3CCCC[C@H]3C(=O)O[C@H](/C(C)=C/[C@@H]3CC[C@@H](O)[C@H](OC)C3)[C@H](C)[C@@H](O)CC1=O)[C@H](C)C[C@@H]2OC [tacrolimus]
Ans. 17

###

- assay_info: clinical
- cond: both, human, whole blood, oral, 1.58 mg
assay_endpoint: clearance (mL/min/kg)
Answer with a number only, understood to be in mL/min/kg.

Qu. Determine its reported clearance: "C=CC[C@@H]1/C=C(\C)C[C@H](C)C[C@H](OC)[C@H]2O[C@@](O)(C(=O)C(=O)N3CCCC[C@H]3C(=O)O[C@H](/C(C)=C/[C@@H]3CC[C@@H](O)[C@H](OC)C3)[C@H](C)[C@@H](O)CC1=O)[C@H](C)C[C@@H]2OC"
Ans. 6

###

- assay_info: Tacrolimus pharmacokinetics stratified by CYP3A5 metabolic composite and ABCB1 3435 genotype
- Type: in vivo, human
- cond: human, whole blood, oral, 2.35 mg; ABCB1 3534 CT and TT, CYP3A5 Poor (N 20)
assay_endpoint: Tmax (h)
Numeric answer only, unit h assumed.

Qu. // fetch Tmax given entry "C=CC[C@@H]1/C=C(\C)C[C@H](C)C[C@H](OC)[C@H]2O[C@@](O)(C(=O)C(=O)N3CCCC[C@H]3C(=O)O[C@H](/C(C)=C/[C@@H]3CC[C@@H](O)[C@H](OC)C3)[C@H](C)[C@@H](O)CC1=O)[C@H](C)C[C@@H]2OC"
Ans. 1.72

###

- assay_info: Tacrolimus pharmacokinetics stratified by CYP3A5 metabolic composite and ABCB1 3435 genotype
- Assay type: in vivo, human
- cond: human, whole blood, oral, 2.46 mg; ABCB1 3534 CC, CYP3A5 Poor (N 13)
assay_endpoint: Cmax (µg/mL)
State the answer as a number, implicitly in µg/mL.

Qu. Fill in Cmax for record C=CC[C@@H]1/C=C(\C)C[C@H](C)C[C@H](OC)[C@H]2O[C@@](O)(C(=O)C(=O)N3CCCC[C@H]3C(=O)O[C@H](/C(C)=C/[C@@H]3CC[C@@H](O)[C@H](OC)C3)[C@H](C)[C@@H](O)CC1=O)[C@H](C)C[C@@H]2OC [tacrolimus]
Ans. 0.0157

###

- assay_info: Tacrolimus pharmacokinetics stratified by CYP3A5 metabolic composite and ABCB1 3435 genotype
- Format: in vivo, human
- cond: human, whole blood, oral, 2.35 mg; ABCB1 3534 CT and TT, CYP3A5 Poor (N 20)
assay_endpoint: Cmax (ng/mL)
Write the number in ng/mL without appending the unit.

Qu. Give reported Cmax value for "C=CC[C@@H]1/C=C(\C)C[C@H](C)C[C@H](OC)[C@H]2O[C@@](O)(C(=O)C(=O)N3CCCC[C@H]3C(=O)O[C@H](/C(C)=C/[C@@H]3CC[C@@H](O)[C@H](OC)C3)[C@H](C)[C@@H](O)CC1=O)[C@H](C)C[C@@H]2OC"
Ans. 17
